B1: Mitochondrial association factor 1 form b1 (Toxoplasma gondii), A0A140H546 (parent)
chain: MWRIWRCRLSFLFATGCLLGALTAGLGSQMSDSVGRNVQAPAGVADASQEAGDVVEERTERTEEQAFALGPPRRHSSESLFPRNASVTARRRRNRRIALIATAVGVAVILAAVYVLRRRRAQRPQDPEPPAPRSVEDPEVLPEEDEASSSLPPPPPPSPPPPPPVEDPLSPESQTVDLSCLSGTTVRFFGPSHHFGGFTPLYDPAPDKRVATVDAGANALFIGGGGLNGQFAKTLLEEAEKHGIRLTPEELSQHSQRIQQSLLRRAVKSPGKLVELDTGVASPVFARSFGFVPVVPGLMWEESEVGPNVGVTFVHILKPEVTPYGNLNNNVMMYTVAPSGAAPDKTYSLAYKTTIAGVIGAAAAYNDTPAGQQYPVQGLRLPLLGGGIFRRNRSLESIGRANAEGTSLAITRYGPNFELQYMYDPSNAALHGLQEAESTYLASMLD

- Variants of: B1
- measurementParameters: with RALGAPA1, Q6GYQ0-1
- Sequence (Q6GYQ0 whole entry): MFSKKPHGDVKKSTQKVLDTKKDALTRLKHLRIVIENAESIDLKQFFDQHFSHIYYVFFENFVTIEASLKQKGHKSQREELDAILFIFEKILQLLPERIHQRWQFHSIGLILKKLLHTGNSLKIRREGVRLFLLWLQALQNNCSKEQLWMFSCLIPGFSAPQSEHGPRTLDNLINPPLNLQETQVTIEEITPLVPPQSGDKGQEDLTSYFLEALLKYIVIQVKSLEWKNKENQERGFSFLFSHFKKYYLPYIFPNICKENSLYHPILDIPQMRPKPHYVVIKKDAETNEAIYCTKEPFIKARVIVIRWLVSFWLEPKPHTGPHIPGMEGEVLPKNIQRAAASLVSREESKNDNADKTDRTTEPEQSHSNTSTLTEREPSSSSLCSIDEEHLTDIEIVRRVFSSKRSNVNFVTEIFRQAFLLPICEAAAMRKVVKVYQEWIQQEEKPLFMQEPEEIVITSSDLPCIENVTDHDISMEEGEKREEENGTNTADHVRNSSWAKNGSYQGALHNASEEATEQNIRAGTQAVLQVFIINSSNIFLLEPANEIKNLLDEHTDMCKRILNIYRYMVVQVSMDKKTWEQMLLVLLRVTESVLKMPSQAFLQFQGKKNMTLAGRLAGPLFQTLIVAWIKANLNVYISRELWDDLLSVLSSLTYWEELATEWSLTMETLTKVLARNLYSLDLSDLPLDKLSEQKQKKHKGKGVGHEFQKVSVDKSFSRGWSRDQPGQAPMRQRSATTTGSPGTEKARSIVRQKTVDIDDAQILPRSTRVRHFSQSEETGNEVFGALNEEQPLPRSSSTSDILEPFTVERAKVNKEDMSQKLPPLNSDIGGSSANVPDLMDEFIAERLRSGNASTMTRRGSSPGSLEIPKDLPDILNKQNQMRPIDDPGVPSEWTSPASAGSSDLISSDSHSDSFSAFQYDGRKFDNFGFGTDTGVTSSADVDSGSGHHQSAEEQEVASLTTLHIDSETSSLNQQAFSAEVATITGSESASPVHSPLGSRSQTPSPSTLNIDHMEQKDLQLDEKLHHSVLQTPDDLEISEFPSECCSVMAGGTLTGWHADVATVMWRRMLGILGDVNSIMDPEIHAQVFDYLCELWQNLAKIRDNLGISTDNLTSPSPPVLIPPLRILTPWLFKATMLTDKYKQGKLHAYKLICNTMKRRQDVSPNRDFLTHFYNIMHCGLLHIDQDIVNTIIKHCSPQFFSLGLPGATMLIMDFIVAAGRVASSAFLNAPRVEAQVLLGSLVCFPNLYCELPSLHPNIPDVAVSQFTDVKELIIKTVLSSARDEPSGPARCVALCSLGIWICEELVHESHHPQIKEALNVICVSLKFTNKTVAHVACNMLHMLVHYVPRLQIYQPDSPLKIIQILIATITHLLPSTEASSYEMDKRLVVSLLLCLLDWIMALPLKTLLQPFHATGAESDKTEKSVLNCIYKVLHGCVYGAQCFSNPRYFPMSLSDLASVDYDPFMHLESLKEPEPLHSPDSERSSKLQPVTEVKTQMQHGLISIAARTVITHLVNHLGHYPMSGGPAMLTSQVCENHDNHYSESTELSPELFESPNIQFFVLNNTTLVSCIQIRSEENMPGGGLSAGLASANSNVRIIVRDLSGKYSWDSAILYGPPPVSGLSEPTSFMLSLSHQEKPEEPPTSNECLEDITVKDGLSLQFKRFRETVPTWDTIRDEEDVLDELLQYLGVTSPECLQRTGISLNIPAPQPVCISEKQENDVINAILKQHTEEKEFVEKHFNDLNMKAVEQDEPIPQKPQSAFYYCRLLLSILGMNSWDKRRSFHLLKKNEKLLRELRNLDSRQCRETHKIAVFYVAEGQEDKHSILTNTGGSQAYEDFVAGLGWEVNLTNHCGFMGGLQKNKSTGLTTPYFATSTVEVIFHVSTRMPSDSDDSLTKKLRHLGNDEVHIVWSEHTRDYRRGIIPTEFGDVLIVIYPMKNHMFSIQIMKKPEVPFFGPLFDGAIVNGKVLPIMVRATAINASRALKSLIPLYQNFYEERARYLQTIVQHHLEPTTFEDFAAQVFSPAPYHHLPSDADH

>  <variantKey>
S438R;L441K

>  <effect of a mutation on the interaction>
with no effect

$$$$
>  <variantKey>
S438R;T439K;L441K

>  <effect of a mutation on the interaction>
with no effect

$$$$
